Please go through the items and note down their pIC50.
# TARGET_ENTITY: CDK6/Cyclin D1 (Homo sapiens (Human))
# Sequence (Q00534 whole entry): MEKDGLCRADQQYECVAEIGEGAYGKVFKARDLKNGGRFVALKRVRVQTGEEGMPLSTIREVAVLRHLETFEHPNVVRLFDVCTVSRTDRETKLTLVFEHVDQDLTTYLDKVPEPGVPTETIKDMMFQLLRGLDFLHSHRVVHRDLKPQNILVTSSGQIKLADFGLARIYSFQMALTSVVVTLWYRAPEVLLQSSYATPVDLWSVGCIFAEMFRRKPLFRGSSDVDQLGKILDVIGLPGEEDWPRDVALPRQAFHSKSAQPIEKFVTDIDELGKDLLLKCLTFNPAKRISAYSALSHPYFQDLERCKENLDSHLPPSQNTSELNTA
# Sequence (P24385 whole entry partner): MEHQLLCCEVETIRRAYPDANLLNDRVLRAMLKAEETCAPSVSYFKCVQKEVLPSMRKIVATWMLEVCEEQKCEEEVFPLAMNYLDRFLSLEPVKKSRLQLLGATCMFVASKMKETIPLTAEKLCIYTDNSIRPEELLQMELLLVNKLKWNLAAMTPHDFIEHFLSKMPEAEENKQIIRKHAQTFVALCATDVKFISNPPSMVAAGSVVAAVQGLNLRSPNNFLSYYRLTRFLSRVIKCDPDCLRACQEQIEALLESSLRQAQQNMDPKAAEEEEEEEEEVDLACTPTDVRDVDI
# ASSAY_SUMMARY: CDK6/CyclinD1 enzymatic activity assay (TR-FRET)
# SETUP_CONDITIONS: ATP 250 μM, read-out: CDK6_D1 IC50
pIC50: −log10 of the molar value.

// returns pIC50 for Cc1c(-c2nc(Nc3ccccn3)ncc2F)sc2c1nc(C)n2C(C)C with CDK6/Cyclin D1 (Homo sapiens (Human)); value = 6.70 to 7.70

CDK6/Cyclin D1 (Homo sapiens (Human)) data for Cc1c(-c2nc(Nc3ccc(N4C[C@@H]5CN(C)C[C@H]5C4)cn3)ncc2F)sc2c(C(C)C)cn(C)c(=O)c12 ; its pIC50: ≥ 7.70

The reported CDK6/Cyclin D1 (Homo sapiens (Human)) pIC50 of Cc1c(-c2nc(Nc3ccc(C4CN(C)C4)cn3)ncc2F)sc2c1nc(C)n2C(C)C is 6.70 to 7.70

Entry CCN1CCN(c2ccc(Nc3ncc(F)c(-c4sc5c(C(C)(O)C(F)(F)F)n(C)nc5c4C)n3)nc2)CC1 (stereo not shown) , tested on CDK6/Cyclin D1 (Homo sapiens (Human)), has a reported pIC50 of ≥ 7.70

Entry CCN1CC2(CC(c3ccc(Nc4ncc(F)c(-c5cc6nc(C)n(C(C)C)c6s5)n4)nc3)C2)C1 , CDK6/Cyclin D1 (Homo sapiens (Human)) data, pIC50 value: 6.70 to 7.70

CDK6/Cyclin D1 (Homo sapiens (Human)) assay, molecule CCN1CCC(c2ccc(Nc3ncc(F)c(-c4sc5c(C(C)C)cn(C)c(=O)c5c4C)n3)nc2)CC1 , recorded pIC50 = ≥ 7.70

Log: CDK6/Cyclin D1 (Homo sapiens (Human)), molecule CCN1CCN(c2ccc(Nc3ncc(F)c(-c4cc5c(s4)c(C(C)C)cc[n+]5[O-])n3)nc2)CC1 , pIC50 = ≥ 7.70

* * *

# ASSAY_SUMMARY: Brain-to-plasma ratio (Kp) determination in Sprague-Dawley rats
# SETUP_CONDITIONS: male, rat, brain (homogenate) versus plasma, po, 10 mg/kg
Assignment: determine reported Kp at 4 h for the given compounds.

Field Kp at 4 h (entry CC(C)c1cn(C)c(=O)c2cc(-c3nc(Nc4ccc(C5CCN(C)CC5)cn4)ncc3F)sc12 [Example 86] ) reads 1 to 3

Entry under test: Cc1c(-c2nc(Nc3ccc(N4CC5(CCN(C)C5)C4)cn3)ncc2F)sc2c(C(C)C)cn(C)c(=O)c12 [Example 61] . Its Kp at 4 h was 1 to 3

CCN1CCN(c2ccc(Nc3ncc(F)c(-c4sc5c(C(C)(O)C(F)(F)F)n(C)nc5c4C)n3)nc2)CC1 (stereo not drawn) [Example 102] yielded Kp at 4 h of 1 to 3

Kp at 4 h reading for CCN1CC2(CC(c3ccc(Nc4ncc(F)c(-c5cc6nc(C)n(C(C)C)c6s5)n4)nc3)C2)C1 [Example 112] : < 1

Noted for Cc1cnc(Nc2ccc(C3CCN(C)CC3)cn2)nc1-c1cc2c(=O)n(C)cc(C(C)C)c2s1 [Example 97] : its Kp at 4 h reads < 1

Please fill in: Kp at 4 h reported for [2H]C([2H])([2H])N1CCC(c2ccc(Nc3ncc(F)c(-c4sc5c(C(C)C)cn(C)c(=O)c5c4C)n3)nc2)CC1 [Example 82] = > 3

// recorded Kp at 4 h for CCN1CCC(c2ccc(Nc3ncc(F)c(-c4sc5c(C(C)C)cn(C)c(=O)c5c4C)n3)nc2)CC1 [Example 87] : 1 to 3

CC(C)c1c2sc(-c3nc(Nc4ccc(C5CCN(C)CC5)cn4)ncc3F)cc2nn1C [Example 99] yielded Kp at 4 h of > 3

Field Kp at 4 h (entry Cc1c(-c2nc(Nc3ccc(C4CCCN(C)C4)cn3)ncc2F)sc2c(C(C)C)cn(C)c(=O)c12 (stereo not drawn) [Example 88] ) reads 1 to 3

According to the records, this compound Cc1c(-c2nc(Nc3ccc(N4CCN(C)CC4)cn3)ncc2F)sc2c1nc(C)n2C(C)C [Example 9] displays Kp at 4 h of 1 to 3

Cc1c(-c2nc(Nc3ccc(N4CC5(CCN(C)CC5)C4)cn3)ncc2F)sc2c(C(C)C)cn(C)c(=O)c12 [Example 77] yielded Kp at 4 h of 1 to 3

The reported Kp at 4 h of the compound CCN1CCN(c2ccc(Nc3ncc(F)c(-c4cc5c(s4)c(C(C)C)cc[n+]5[O-])n3)nc2)CC1 [Example 50] was 1 to 3

Kp at 4 h in this record for [2H]C([2H])([2H])n1cc(C(C)C)c2sc(-c3nc(Nc4ccc(C5CCN(C)CC5)cn4)ncc3F)c(C)c2c1=O [Example 85] : > 3

# Kp at 4 h of Cc1nc2cc(-c3nc(Nc4ccc(CN5CCN(CC(F)F)CC5)cn4)ncc3F)sc2n1C(C)C [Example 64] = < 1

get_value(item= Cc1c(-c2nc(Nc3ccc(N4CCC5(CC4)CN(C)C5)cn3)ncc2F)sc2c(C(C)C)cn(C)c(=O)c12 [Example 91] , readout=Kp at 4 h) returns < 1

* * *

Provide the reported IC50 of each item.
# TARGET_ENTITY: CDK4/Cyclin D1 (Homo sapiens (Human))
# Sequence (P11802 whole entry): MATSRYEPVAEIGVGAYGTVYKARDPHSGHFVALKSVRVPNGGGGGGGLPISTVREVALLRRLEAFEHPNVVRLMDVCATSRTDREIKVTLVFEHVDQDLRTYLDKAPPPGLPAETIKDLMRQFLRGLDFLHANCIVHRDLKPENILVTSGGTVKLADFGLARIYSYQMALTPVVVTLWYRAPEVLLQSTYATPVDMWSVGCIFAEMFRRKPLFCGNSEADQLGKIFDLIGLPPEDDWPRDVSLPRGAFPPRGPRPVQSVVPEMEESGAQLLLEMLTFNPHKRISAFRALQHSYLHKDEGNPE
# Sequence (P24385 whole entry partner): as the sequence (P24385 whole entry partner) above
# ASSAY_SUMMARY: CDK4/CyclinD1 enzymatic activity assay (TR-FRET)
# SETUP_CONDITIONS: ATP 2 mM, read-out: CDK4_D1 IC50

The compound listed as Cc1c(-c2nc(Nc3ccc(N4CCN(C)CC4=O)cn3)ncc2F)sc2c1nc(C)n2C(C)C shows IC50 equal to ≤ 20 nM

For CCN1CC2(C1)CN(c1ccc(Nc3ncc(F)c(-c4cc5c(C6CCCC6)ccnc5s4)n3)nc1)C2 the compound record lists IC50 as 20 to 200 nM

// field: IC50; key: CCN1CCN(c2ccc(Nc3ncc(F)c(-c4cc5nccc(C(C)C)c5s4)n3)nc2)CC1 ; value = ≤ 20 nM

Please fill in: IC50 reported for Cc1c(-c2nc(Nc3ccc(C4CCN(C5CCOC5)CC4)cn3)ncc2F)sc2c(C(C)C)cn(C)c(=O)c12 (stereo not shown) = ≤ 20 nM

Input CCN1CCN(c2ccc(Nc3ncc(F)c(-c4sc5c(C(C)C)ccnc5c4C(F)(F)F)n3)nc2)CC1 . Output IC50: ≤ 20 nM

The reported value for CCN1CCN(c2ccc(Nc3ncc(F)c(-c4cc5nccc(C6CCCC6)c5s4)n3)nc2)CC1 in terms of IC50 is 20 to 200 nM

Quick note, IC50 for CN1CCC(c2ccc(Nc3ncc(F)c(-c4cc5c(=O)n(C)nc(C67CC(F)(C6)C7)c5s4)n3)nc2)CC1 landed at 200 to 2000 nM

* * *

Assignment: determine reported pIC50 for the given compounds.
# TARGET_ENTITY: CDK4/Cyclin D1 (Homo sapiens (Human))
# ASSAY_SUMMARY: CDK4/CyclinD1 enzymatic activity assay (TR-FRET)
# Type: biochemical
# SETUP_CONDITIONS: ATP 2 mM, read-out: CDK4_D1 IC50
pIC50: −log10 of the molar value.

Reported pIC50 of CCN1CC2(C1)CN(c1ccc(Nc3ncc(F)c(-c4sc5c(C(C)C)nn(C)c(=O)c5c4C)n3)nc1)C2 [Example 63] : 6.70 to 7.70

Noted for Fc1cnc(Nc2ccc(N3CCNCC3)cn2)nc1-c1cc2c(C3CCCC3)ccnc2s1 [Example 46] : its pIC50 reads 6.70 to 7.70

Entry CCN1CCN(c2ccc(Nc3ncc(F)c(-c4sc5c(C6CCCC6)ccnc5c4C)n3)nc2)CC1 [Example 31] , pIC50 reported as 6.70 to 7.70

What the record says about Cc1c(-c2nc(Nc3ccc(C4CC[C@H]5CN(C)C(=O)CN45)cn3)ncc2F)sc2c1nc(C)n2C(C)C (single isomer, unassigned) [Example 118] : pIC50 is ≥ 7.70

* * *

# TARGET_ENTITY: CDK6/Cyclin D1 (Homo sapiens (Human))
# ASSAY_SUMMARY: CDK6/CyclinD1 enzymatic activity assay (TR-FRET)
# SETUP_CONDITIONS: ATP 250 μM, read-out: CDK6_D1 IC50
MEASURED_ENDPOINT: IC50

I looked up Cc1c(-c2nc(Nc3ccc(N4CCC5(CC4)CN(C)C5)cn3)ncc2F)sc2c(C(C)C)cn(C)c(=O)c12 and its IC50 for CDK6/Cyclin D1 (Homo sapiens (Human)) was ≤ 0.02 µM

Tested on CDK6/Cyclin D1 (Homo sapiens (Human)): Cc1cnc(Nc2ccc(C3CCN(C)CC3)cn2)nc1-c1cc2c(=O)n(C)cc(C(C)C)c2s1 . Observed IC50: ≤ 0.02 µM

With CDK6/Cyclin D1 (Homo sapiens (Human)) as the test system, Cc1c(-c2nc(Nc3ccc(C4CCCN(C)C4)cn3)ncc2Cl)sc2c1ncn2C(C)C (stereo not drawn) showed IC50 of 0.02 to 0.2 µM

Cc1c(-c2nc(Nc3ccc(C4CCN(C)CC4)nn3)ncc2F)sc2c(C(C)C)cn(C)c(=O)c12 on CDK6/Cyclin D1 (Homo sapiens (Human)) gives IC50 = 0.02 to 0.2 µM

Item Cc1c(-c2nc(Nc3ccc(N4CC5(CCN(C)C5)C4)cn3)ncc2F)sc2c(C(C)C)cn(C)c(=O)c12 was tested on CDK6/Cyclin D1 (Homo sapiens (Human)); the reported IC50 is ≤ 0.02 µM

The compound Cc1c(-c2nc(Nc3ccc(N4CCN(C)CC4=O)cn3)ncc2F)sc2c1nc(C)n2C(C)C on CDK6/Cyclin D1 (Homo sapiens (Human)): IC50 was ≤ 0.02 µM

Test item [2H]C([2H])([2H])N1CCC(c2ccc(Nc3ncc(F)c(-c4sc5c(C(C)C)cn(C)c(=O)c5c4C)n3)nc2)CC1 ; CDK6/Cyclin D1 (Homo sapiens (Human)); reported IC50 was ≤ 0.02 µM

Tested system CDK6/Cyclin D1 (Homo sapiens (Human)); IC50 recorded for Cc1nc2cc(-c3nc(Nc4ccc(CN5CCN(CC(F)F)CC5)cn4)ncc3F)sc2n1C(C)C was 0.02 to 0.2 µM

Assay CDK6/Cyclin D1 (Homo sapiens (Human)), sample Cc1c(-c2nc(Nc3ccc(C4CCN(C)CC4)cn3)ncc2F)sc2c(C(C)C)c[nH]c(=O)c12 , IC50 read: ≤ 0.02 µM

Sample Cc1c(-c2nc(Nc3ccc(N4CCN(C(C)C)CC4)cn3)ncc2F)sc2c(C(C)C)cn(C)c(=O)c12 , system: CDK6/Cyclin D1 (Homo sapiens (Human)). Its IC50 is ≤ 0.02 µM

I looked up CCN1CCN(c2ccc(Nc3ncc(F)c(-c4cc5nccc(C(C)(C)O)c5s4)n3)nc2)CC1 and its IC50 for CDK6/Cyclin D1 (Homo sapiens (Human)) was 0.02 to 0.2 µM

// IC50 (CDK6/Cyclin D1 (Homo sapiens (Human))) for CCN1C2CC1CN(c1ccc(Nc3ncc(F)c(-c4cc5c(=O)n(C)cc(C(C)C)c5s4)n3)nc1)C2 = 0.02 to 0.2 µM

Query CCN1CCC(c2ccc(Nc3ncc(F)c(-c4sc5c(ncn5C(C)C)c4C)n3)nc2)CC1 on CDK6/Cyclin D1 (Homo sapiens (Human)); IC50 returned: ≤ 0.02 µM

IC50 on CDK6/Cyclin D1 (Homo sapiens (Human)) for Cc1c(-c2nc(Nc3ccc(N4CC5(C4)CN(C(C)C)C5)cn3)ncc2F)sc2c(C(C)C)cn(C)c(=O)c12 is ≤ 0.02 µM

Note to self: IC50 of CCN1C2CC1CN(c1ccc(Nc3ncc(F)c(-c4cc5nc(C)n(C(C)C)c5s4)n3)nc1)C2 with CDK6/Cyclin D1 (Homo sapiens (Human)) was 0.02 to 0.2 µM
